# Measurement notes: Study KAR5585-101 Part 1 (SAD): plasma pharmacokinetics after a single oral dose of KAR5585, fasting and fed (incl. dose proportionality and food effect)
# Details: human, plasma, po, 100 mg, t1/2, KAR5417 after 100 mg KAR5585 single oral, fasted, Cohort 1; Geo. Mean
Attribute measured: half-life (min)
Form entry: value (min) — number only.

Task: Field request: half-life | item: Nc1nc(O[C@H](c2ccc(Cl)cc2-c2ccccc2)C(F)(F)F)cc(N2CCC3(CC2)CN[C@H](C(=O)O)C3)n1
Output: 271

====

# Measurement notes: Study KAR5585-101 Part 1 (SAD): plasma pharmacokinetics after a single oral dose of KAR5585, fasting and fed (incl. dose proportionality and food effect)
# Details: human, plasma, po, 400 mg, AUC0-24, KAR5417 after 400 mg KAR5585 single oral, fed, Cohort 3B; Mean
Attribute measured: AUC(0-t) (ng·h/mL)
Enter your answer as a number in ng·h/mL; do not include the unit.

Task: Requested read-out: AUC(0-t). Entry: Nc1nc(O[C@H](c2ccc(Cl)cc2-c2ccccc2)C(F)(F)F)cc(N2CCC3(CC2)CN[C@H](C(=O)O)C3)n1 [KAR5417]
Output: 5430

====

# Measurement notes: Study KAR5585-101 Part 1 (SAD): plasma pharmacokinetics after a single oral dose of KAR5585, fasting and fed (incl. dose proportionality and food effect)
# Details: human, plasma, po, 1200 mg, Vz/F, 1200 mg KAR5585 single oral, fasted, Cohort 5; Geo. Mean
Attribute measured: Vd/F
The number alone won't do; follow it with the unit.

Task: Which Vd/F value is on record for CCOC(=O)[C@@H]1CC2(CCN(c3cc(O[C@H](c4ccc(Cl)cc4-c4ccccc4)C(F)(F)F)nc(N)n3)CC2)CN1 ?
Output: 14500 L

====

# Measurement notes: Study KAR5585-101 Part 1 (SAD): plasma pharmacokinetics after a single oral dose of KAR5585, fasting and fed (incl. dose proportionality and food effect)
# Details: human, plasma, po, 400 mg, C12, KAR5417 after 400 mg KAR5585 single oral, fed, Cohort 3B; Geo. Mean
Attribute measured: concentration at 12 h (ng/mL)
Respond with the bare value in ng/mL.

Task: GET /values?readout=concentration at 12 h&item= Nc1nc(O[C@H](c2ccc(Cl)cc2-c2ccccc2)C(F)(F)F)cc(N2CCC3(CC2)CN[C@H](C(=O)O)C3)n1
Output: 165

====

# Measurement notes: Study KAR5585-101 Part 1 (SAD): plasma pharmacokinetics after a single oral dose of KAR5585, fasting and fed (incl. dose proportionality and food effect)
# Details: human, plasma, po, 1200 mg, t1/2, KAR5417 after 1200 mg KAR5585 single oral, fasted, Cohort 5; Geo. Mean
Attribute measured: half-life (h)
# number only, unit h dropped from output

Task: Fill blank: measured half-life of the molecule Nc1nc(O[C@H](c2ccc(Cl)cc2-c2ccccc2)C(F)(F)F)cc(N2CCC3(CC2)CN[C@H](C(=O)O)C3)n1 [KAR5417] is ____.
Output: 14

====

# Measurement notes: Study KAR5585-101 Part 1 (SAD): plasma pharmacokinetics after a single oral dose of KAR5585, fasting and fed (incl. dose proportionality and food effect)
# Details: human, plasma, po, 1200 mg, t1/2, KAR5417 after 1200 mg KAR5585 single oral, fasted, Cohort 5; Mean
Attribute measured: half-life
Express the reported value numerically, then name its unit.

Task: Dear colleague, I am looking for the recorded half-life of the following compound: Nc1nc(O[C@H](c2ccc(Cl)cc2-c2ccccc2)C(F)(F)F)cc(N2CCC3(CC2)CN[C@H](C(=O)O)C3)n1
Output: 14.9 h
